Collected log10 of Ki values appear next to each entry.
Target: NAALADase (Homo sapiens)
Sequence (Q04609 whole entry): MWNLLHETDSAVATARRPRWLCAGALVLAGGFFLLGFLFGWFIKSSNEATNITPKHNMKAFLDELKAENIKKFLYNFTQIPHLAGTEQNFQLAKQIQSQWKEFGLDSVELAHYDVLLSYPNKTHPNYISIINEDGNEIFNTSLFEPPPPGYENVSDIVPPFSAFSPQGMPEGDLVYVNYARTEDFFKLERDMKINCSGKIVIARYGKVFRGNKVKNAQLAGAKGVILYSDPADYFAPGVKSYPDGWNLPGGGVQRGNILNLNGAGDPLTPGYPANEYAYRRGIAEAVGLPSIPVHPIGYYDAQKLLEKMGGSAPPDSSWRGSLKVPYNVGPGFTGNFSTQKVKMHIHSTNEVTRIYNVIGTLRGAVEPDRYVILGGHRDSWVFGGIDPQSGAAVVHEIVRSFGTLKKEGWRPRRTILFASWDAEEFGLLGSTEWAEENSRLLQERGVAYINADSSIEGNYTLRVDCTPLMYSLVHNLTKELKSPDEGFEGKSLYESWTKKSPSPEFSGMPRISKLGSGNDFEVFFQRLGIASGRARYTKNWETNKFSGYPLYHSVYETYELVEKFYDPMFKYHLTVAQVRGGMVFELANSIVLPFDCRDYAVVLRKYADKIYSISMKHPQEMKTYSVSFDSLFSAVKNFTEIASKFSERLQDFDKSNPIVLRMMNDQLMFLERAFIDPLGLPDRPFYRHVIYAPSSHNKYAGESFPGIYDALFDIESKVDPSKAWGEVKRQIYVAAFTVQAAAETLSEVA
A difference of one corresponds to tenfold Ki; all values are log10 with Ki in µM.

INSERT INTO assay_data (compound, readout, result_value) VALUES
  ('O=C(O)CCC(CP(=O)(O)CCc1ccccc1)C(=O)O (stereo not shown)', 'log10 of Ki', -0.83),
  ('O=C(O)CCC(CP(=O)(O)CNCc1ccccc1)C(=O)O (stereo not shown)', 'log10 of Ki', -1.29),
  ('O=C(O)CCC(CP(=O)(O)Cc1ccccc1)C(=O)O (stereo not shown)', 'log10 of Ki', -1.47),
  ('Cc1ccc(NCP(=O)(O)CC(CCC(=O)O)C(=O)O)cc1 (stereo not shown)', 'log10 of Ki', -2.28),
  ('CC(CP(=O)(O)CC(CCC(=O)O)C(=O)O)C(=O)O (stereo not shown)', 'log10 of Ki', -2.82);

[in] # return recorded log10 of Ki for entry O=C(O)CCC(CP(=O)(O)CCCc1ccccc1)C(=O)O (stereo not shown)
[out] -0.63

[in] # return recorded log10 of Ki for entry COc1ccc(NCP(=O)(O)CC(CCC(=O)O)C(=O)O)cc1 (stereo not shown)
[out] -2.60

Reference source for all entries: patent US20030064912A1
